# System: SNB-75 CNS
# measurement-protocol: NCI tumour cell line growth inhibition, 48 h; in the data active means GI50 below about 0.43 µM; inactive means the rest
Labels: true = active, false = inactive

[
  {
    "compound": "COc1cc(Nc2ncnc(Nc3ccc4c(n3)NC(=O)C(C)(C)O4)n2)cc(OC)c1OC",
    "assayed-system": "SNB-75 CNS",
    "group-label": "true"
  },
  {
    "compound": "Oc1c(O)c(Cl)c(Cl)c(Cl)c1Cl",
    "assayed-system": "SNB-75 CNS",
    "group-label": "false"
  },
  {
    "compound": "Cn1cncc1-c1c(F)cncc1NC(=O)c1c(N)nn2cc(F)cnc12",
    "assayed-system": "SNB-75 CNS",
    "group-label": "false"
  },
  {
    "compound": "NC(=O)c1ncn(CC2(CO)CCC2)n1",
    "assayed-system": "SNB-75 CNS",
    "group-label": "false"
  },
  {
    "compound": "CCOc1ccc(C(C)=O)cc1NC(=O)c1cccc(-c2nnn(CC)n2)c1",
    "assayed-system": "SNB-75 CNS",
    "group-label": "true"
  },
  {
    "compound": "CCc1nc2cc(/C=C/C(=O)NO)ccc2c(=O)n1CCc1ccc(OC)cc1",
    "assayed-system": "SNB-75 CNS",
    "group-label": "false"
  },
  {
    "compound": "CCC[CH2][Sn]([CH2]CCC)([CH2]CCC)[O]C(=O)C(OC)c1ccccc1 (stereo unspecified)",
    "assayed-system": "SNB-75 CNS",
    "group-label": "true"
  },
  {
    "compound": "COc1cc(CN(c2ccc(C)cc2)C2OC(=O)c3ccccc32)cc(OC)c1OC (stereo unspecified)",
    "assayed-system": "SNB-75 CNS",
    "group-label": "true"
  },
  {
    "compound": "O=C([CH-]C(=O)c1ccccc1)c1ccccc1.O=C([CH-]C(=O)c1ccccc1)c1ccccc1.O=C([CH-]C(=O)c1ccccc1)c1ccccc1.[Cl-].[Zr+4]",
    "assayed-system": "SNB-75 CNS",
    "group-label": "false"
  },
  {
    "compound": "CC12OC(C(=O)C13CCC3)C1C(=O)c3ccc4c(ccc5ccccc54)c3C(=O)C12 (stereo unspecified)",
    "assayed-system": "SNB-75 CNS",
    "group-label": "false"
  },
  {
    "compound": "CCOC(=O)C#Cc1c(C(=O)OCC)nnn1[C@@H]1O[C@H](CO)[C@H]2OC3(CCCCC3)O[C@H]21",
    "assayed-system": "SNB-75 CNS",
    "group-label": "false"
  },
  {
    "compound": "Nc1ccccc1C(=O)NC(=O)Nc1ccc(Oc2ncc(Br)cn2)c(Cl)c1",
    "assayed-system": "SNB-75 CNS",
    "group-label": "true"
  },
  {
    "compound": "O=C1Nc2ccccc2/C1=C/c1cn(CC(O)Cn2cc(/C=C3\\C(=O)Nc4ccccc43)c3ccccc32)c2ccccc12 (stereo unspecified)",
    "assayed-system": "SNB-75 CNS",
    "group-label": "false"
  },
  {
    "compound": "CCN(CC)c1ccc(/C=N/NC(=O)CSc2nc3ccccc3c(=O)n2Cc2ccc(S(N)(=O)=O)cc2)c(O)c1",
    "assayed-system": "SNB-75 CNS",
    "group-label": "false"
  },
  {
    "compound": "COc1ccc(-c2nc(N)c(C#N)c3c2CCOc2c-3ccc3ccccc23)cc1",
    "assayed-system": "SNB-75 CNS",
    "group-label": "false"
  },
  {
    "compound": "O=C(/C=C\\n1cnc(-c2cc(C(F)(F)F)cc(C(F)(F)F)c2)n1)N1CC(F)(F)C1",
    "assayed-system": "SNB-75 CNS",
    "group-label": "false"
  }
]
